- TESTED_TARGET: human κ opioid receptor (OPRK1) (Homo sapiens, UniProt P41145)
- Construct: expressed in transfected cells; host or cells: CHO-K1
- Sequence (P41145 whole entry): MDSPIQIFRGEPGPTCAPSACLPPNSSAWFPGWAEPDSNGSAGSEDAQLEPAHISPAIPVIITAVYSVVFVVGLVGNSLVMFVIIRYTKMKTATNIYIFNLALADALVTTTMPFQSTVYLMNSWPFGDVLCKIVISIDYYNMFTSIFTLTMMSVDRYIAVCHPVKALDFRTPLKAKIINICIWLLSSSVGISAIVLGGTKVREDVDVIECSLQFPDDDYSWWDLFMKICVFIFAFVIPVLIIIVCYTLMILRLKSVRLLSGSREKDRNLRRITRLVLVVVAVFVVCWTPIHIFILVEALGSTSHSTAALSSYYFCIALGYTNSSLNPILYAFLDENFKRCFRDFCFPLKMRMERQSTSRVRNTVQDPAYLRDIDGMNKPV
- RUN_DESCRIPTION: Determination of activities of κ receptor agonists: inhibition of forskolin-stimulated cAMP release (HTRF) in stably transfected CHO-K1 cells
- Type: cell-based
Square brackets hold non-standard residues; d marks the D form. Side chains are listed from the residue outwards. Peptide text beside a SMILES is read from it. * marks the point of attachment. X12 = CCOc1ccc(C[C@@H](NC(=O)[C@H](N)Cc2ccccc2)C(=O)*)cc1; Api = NC1(C(=O)O)CCNCC1
QUANTITY_NAME: EC50 (nM)
Use nM as the unit, but write only the number.

Example molecules with recorded EC50:
>  <MOLECULE>
Cc1ccc(C[C@@H](NC(=O)[C@H](N)Cc2ccccc2)C(=O)N[C@H](CC(C)C)C(=O)N[C@H](CCCCN)C(=O)N2CCC(N)(C(=O)N[C@@H](CCCCN)C(=O)O)CC2)cc1

>  <QUANTITY_NAME>
EC50

>  <ASSAY_RESULT>
0.16

$$$$
>  <MOLECULE>
CCOc1ccc(C[C@@H](NC(=O)[C@H](N)Cc2ccccc2)C(=O)N[C@H](CC(C)C)C(=O)N[C@H](CCCCN)C(=O)N2CCC(N)(C(=O)NCC(=O)NCC(=O)NCC(=O)NCC(=O)NCC(=O)N[C@H](CCCCN)C(N)=O)CC2)cc1 [Compound 65] (H-[Api]([dK-dL-X12])GGGGG[dK]-NH2; N-terminus assumed)

>  <QUANTITY_NAME>
EC50

>  <ASSAY_RESULT>
0.0884

$$$$
>  <MOLECULE>
CCOc1ccc(C[C@@H](NC(=O)[C@H](N)Cc2ccccc2)C(=O)N[C@H](CC(C)C)C(=O)N[C@H](CCCCN)C(=O)N2CCC(N)(C(=O)NCC(=O)NCC(=O)NCC(=O)NCC(=O)NCC(=O)N[C@H](CCCCN)C(=O)O)CC2)cc1 [Compound 66] (H-[Api]([dK-dL-X12])GGGGG[dK]-OH; N-terminus assumed)

>  <QUANTITY_NAME>
EC50

>  <ASSAY_RESULT>
0.0895

$$$$

Switching to the query record.
-- ask // query EC50 value for entry "CC(C)C[C@@H](NC(=O)[C@@H](Cc1ccc(F)cc1)NC(=O)[C@H](N)Cc1ccccc1)C(=O)N[C@H](CCCCN)C(=O)N1CCC(N)(C(=O)O)CC1"
-- reply 0.215

----------
- TESTED_TARGET: human κ opioid receptor (OPRK1) (Homo sapiens, UniProt P41145)
- Construct: expressed in transfected cells; host or cells: CHO-K1
- RUN_DESCRIPTION: Determination of activities of κ receptor agonists: inhibition of forskolin-stimulated cAMP release (HTRF) in stably transfected CHO-K1 cells
- Assay type: cell-based
Bridge positions count the residues as written; N and C are the ends. Square brackets hold non-standard residues; d marks the D form. Side chains are listed from the residue outwards. Peptide text beside a SMILES is read from it. I, II: the chains in the order shown. * marks the point of attachment. X12 = CCOc1ccc(C[C@@H](NC(=O)[C@H](N)Cc2ccccc2)C(=O)*)cc1; X10 = NCCCC[C@@H](NC(=O)C1(N)CCN(*)CC1)C(=O)O; X6 = NCCCC[C@H](NC(=O)C1(N)CCN(*)CC1)C(N)=O; Trifluoroethyl = FC(F)(F)C*; Api = NC1(C(=O)O)CCNCC1
QUANTITY_NAME: pEC50
For clarity, pEC50 is expressed as the negative log10 of concentration in mol/L.

>  <COMPOUND>
CCOc1ccc(C[C@@H](NC(=O)[C@H](N)Cc2ccccc2)C(=O)N[C@H](CC(C)C)C(=O)N[C@H](CCCCN)C(=O)N2CCC(N)(C(=O)N[C@@H](CCCCN)C(N)=O)CC2)cc1 [Compound 3] (H-[dF][dY](Et)[dL][dK]-X6; N-terminus assumed)

>  <pEC50>
10.40

$$$$
>  <COMPOUND>
CC(C)C[C@@H](NC(=O)[C@@H](Cc1ccc(Cl)cc1)NC(=O)[C@H](N)Cc1ccccc1)C(=O)N[C@H](CCCCN)C(=O)N1CCC(N)(C(=O)N[C@@H](CCCCN)C(=O)O)CC1

>  <pEC50>
10.29

$$$$
>  <COMPOUND>
CC(C)C[C@@H](NC(=O)[C@@H](Cc1ccc(Br)cc1)NC(=O)[C@H](N)Cc1ccccc1)C(=O)N[C@H](CCCCN)C(=O)N1CCC(N)(C(=O)N[C@@H](CCCCN)C(=O)O)CC1

>  <pEC50>
10.20

$$$$
>  <COMPOUND>
CC(C)C[C@@H](NC(=O)[C@@H](Cc1ccc(Br)cc1)NC(=O)[C@H](N)Cc1ccccc1)C(=O)N[C@H](CCCCN)C(=O)N1CCC(N)(C(=O)O)CC1

>  <pEC50>
9.87

$$$$
>  <COMPOUND>
CC(C)C[C@@H](NC(=O)[C@@H](Cc1ccc(Cl)cc1)NC(=O)[C@H](N)Cc1ccccc1)C(=O)N[C@H](CCCCN)C(=O)N1CCC(N)(C(=O)N[C@H](CCCCN)C(=O)O)CC1

>  <pEC50>
10.29

$$$$
>  <COMPOUND>
CCOc1ccc(C[C@@H](NC(=O)[C@H](N)Cc2ccccc2)C(=O)N[C@H](CC(C)C)C(=O)N[C@H](CCCCN)C(=O)N2CCC(N)(C(=O)N[C@H](CCCCN)C(=O)N[C@H](CCCCN)C(=O)N[C@H](CCCCN)C(N)=O)CC2)cc1 [Compound 19] (I: H-[Api][dK][dK][dK]-NH2 / II: H-[dF][dY](Et)[dL][dK]; amide I:1-II:C; N-terminus assumed)

>  <pEC50>
10.32

$$$$

-- ask Any idea what its pEC50 is? The compound is "CC(C)C[C@@H](NC(=O)[C@@H](Cc1ccc(Cl)cc1)NC(=O)[C@H](N)Cc1ccccc1)C(=O)N[C@H](CCCCN)C(=O)N1CCC(N)(C(=O)N[C@@H](CCCCN)C(N)=O)CC1"
-- reply 10.28

-- ask Which measured pEC50 value corresponds to CC(C)C[C@@H](NC(=O)[C@@H](Cc1ccc(OCC(F)(F)F)cc1)NC(=O)[C@H](N)Cc1ccccc1)C(=O)N[C@H](CCCCN)C(=O)N1CCC(N)(C(=O)N[C@H](CCCCN)C(=O)O)CC1 [Compound 96] (H-[dF][dY](Trifluoroethyl)[dL][dK]-X10; N-terminus assumed) ?
-- reply 10.31

-- ask Fill blank: measured pEC50 of the compound "CC(C)C[C@@H](NC(=O)[C@@H](Cc1ccc(C(C)C)cc1)NC(=O)[C@H](N)Cc1ccccc1)C(=O)N[C@H](CCCCN)C(=O)N1CCC(N)(C(=O)N[C@H](CCCCN)C(N)=O)CC1" is ____.
-- reply 9.84

-- ask What pEC50 value was documented for this compound, CCOc1ccc(C[C@@H](NC(=O)[C@H](N)Cc2ccccc2)C(=O)N[C@H](CC(C)C)C(=O)N[C@H](CCCCN)C(=O)N2CCC(N)(C(=O)NCC(=O)NCC(=O)NCC(=O)NCC(=O)N[C@H](CCCCN)C(N)=O)CC2)cc1 [Compound 61] (H-[Api]([dK-dL-X12])GGGG[dK]-NH2; N-terminus assumed) ?
-- reply 10.15

-- ask Which pEC50 reading was recorded for the compound CCOc1ccc(C[C@@H](NC(=O)[C@H](N)Cc2ccccc2)C(=O)N[C@H](CC(C)C)C(=O)N[C@H](CCCCN)C(=O)N2CCC(N)(C(=O)N[C@@H](CCCCN)C(=O)N[C@@H](CCCCN)C(=O)N[C@@H](CCCCN)C(=O)N[C@@H](CCCCN)C(=O)O)CC2)cc1 [Compound 10] (H-[Api]([dK-dL-X12])KKKK-OH; N-terminus assumed) ?
-- reply 10.33

----------
- TESTED_TARGET: human κ opioid receptor (OPRK1) (Homo sapiens, UniProt P41145)
- Construct: expressed in transfected cells; host or cells: CHO-K1
- RUN_DESCRIPTION: Determination of activities of κ receptor agonists: inhibition of forskolin-stimulated cAMP release (HTRF) in stably transfected CHO-K1 cells
- Assay type: cell-based
Square brackets hold non-standard residues; d marks the D form. Side chains are listed from the residue outwards. Peptide text beside a SMILES is read from it. * marks the point of attachment. X12 = CCOc1ccc(C[C@@H](NC(=O)[C@H](N)Cc2ccccc2)C(=O)*)cc1; Piperidinyl(4-NH2,4-CONH2) = NC(=O)C1(N)CCN(*)CC1; X6 = NCCCC[C@H](NC(=O)C1(N)CCN(*)CC1)C(N)=O; Trifluoroethyl = FC(F)(F)C*; Api = NC1(C(=O)O)CCNCC1
QUANTITY_NAME: pEC50
Lab note — pEC50 values are minus log10 of concentrations in M.

>  <MOLECULE>
CCOc1ccc(C[C@@H](NC(=O)[C@H](N)Cc2ccccc2)C(=O)N[C@H](CC(C)C)C(=O)N[C@H](CCCCN)C(=O)N2CCC(N)(C(=O)N[C@H](CCCCN)C(=O)N[C@H](CCCCN)C(=O)N[C@H](CCCCN)C(=O)N[C@H](CCCCN)C(N)=O)CC2)cc1 [Compound 21] (H-[Api]([dK-dL-X12])[dK][dK][dK][dK]-NH2; N-terminus assumed)

>  <QUANTITY_NAME>
pEC50

>  <ASSAY_RESULT>
10.30

$$$$
>  <MOLECULE>
COc1ccc(C[C@@H](NC(=O)[C@H](N)Cc2ccccc2)C(=O)N[C@H](CC(C)C)C(=O)N[C@H](CCCCN)C(=O)N2CCC(N)(C(=O)N[C@@H](CCCCN)C(N)=O)CC2)cc1 [Compound 87] (H-[dF][dY](Me)[dL][dK]-X6; N-terminus assumed)

>  <QUANTITY_NAME>
pEC50

>  <ASSAY_RESULT>
10.37

$$$$

-- ask Please give the measured pEC50 for this molecule: CC(C)C[C@@H](NC(=O)[C@@H](Cc1ccc(OCC(F)(F)F)cc1)NC(=O)[C@H](N)Cc1ccccc1)C(=O)N[C@H](CCCCN)C(=O)N1CCC(N)(C(N)=O)CC1 [Compound 91] (H-[dF][dY](Trifluoroethyl)[dL][dK]-{Piperidinyl(4-NH2,4-CONH2)}; N-terminus assumed)
-- reply 9.96
